Tested on: time spent on the open-arms
Assay Method Text: Elevated plus-maze test
Assay type: in vivo, N.I.H. Swiss-Webster mice
Test Conditions: IP, 50% hpbcd, 10 mg/kg
Where a name gives a salt, the structure may show the parent alone.
Observed Property: Plus-Maze (% Control), time spent on the open-arms

- Molecule: "COCC1(O)CCC2(C)C(CCC3C2CCC2(C)C(OC)CCC32)C1 (stereo not shown)"
  Experimental Value: 130
- Molecule: "C=C[C@@]1(O)CC[C@@]2(C)[C@@H](CC[C@@H]3[C@@H]2CC[C@]2(C)[C@@H](OC)CC[C@@H]32)C1"
  Experimental Value: 127
- Molecule: "COC1CCC2C3CCC4CC(O)(C#Cc5ccc(C(C)=O)cc5)CCC4C3CCC12C (stereo not shown)"
  Experimental Value: 156
- Molecule: "COC1CCC2C3CCC4CC(O)(C(F)(F)F)CCC4C3CCC12C (stereo not shown)"
  Experimental Value: 107
- Molecule: "C[C@]12CC[C@@H](O)C[C@H]1CC[C@@H]1[C@@H]2CC[C@]2(C)[C@@H](C(=O)CSc3ccncc3)CC[C@@H]12"
  Experimental Value: 151
- Molecule: "C#CC1(O)CCC2C(CCC3C2CCC2(C)C(OC)CCC32)C1 (stereo not shown)"
  Experimental Value: 158
- Molecule: "COC1CCC2C3CCC4CC(O)(C(F)(F)F)CCC4(C)C3CCC12C (stereo not drawn) [3α-Hydroxy-17β-methoxy-3β-trifluoromethyl-5β-androstane]"
  Experimental Value: 115
- Molecule: "COC1CCC2C3CCC4CC(O)(C#CCCO)CCC4(C)C3CCC12C (stereo not drawn) [3β-(4′-Hydroxybutyn-1′-yl)-3α-hydroxy-17β-methoxy-5α-androst]"
  Experimental Value: 158
- Molecule: "C#C[C@@]1(O)CC[C@@]2(C)[C@@H](CC[C@@H]3[C@@H]2CC[C@]2(C)[C@@H](OC)CC[C@@H]32)C1"
  Experimental Value: 129
- Molecule: "C#C[C@@]1(O)CC[C@@]2(C)[C@H](CC[C@@H]3[C@@H]2CC[C@]2(C)[C@@H](OC)CC[C@@H]32)C1"
  Experimental Value: 123
- Molecule: "CC12CCC(O)CC1CCC1C2CCC2(C)C(C(=O)CSc3ncc[nH]3)CCC12 (stereo not shown)"
  Experimental Value: 166
- Molecule: "C[C@]12CC[C@@H](O)C[C@@H]1CC[C@@H]1[C@@H]2CC[C@]2(C)[C@@H](C(=O)CSc3ccncc3)CC[C@@H]12"
  Experimental Value: 148
- Molecule: "C[C@]12CC[C@@H](O)C[C@H]1CC[C@@H]1[C@@H]2CC[C@]2(C)[C@@H](C(=O)C[S+]([O-])c3ccncc3)CC[C@@H]12 (stereo partly shown)"
  Experimental Value: 171
- Molecule: "CO[C@H]1CC[C@H]2[C@@H]3CC[C@@H]4C[C@H](O)CC[C@]4(C)[C@H]3CC[C@]12C [3α-Hydroxy-17β-methoxy-5β-androstane]"
  Experimental Value: 115
- Molecule: "C#CC1(O)CCC2(C)C(CCC3C2CCC2(C)C(C(=O)CSCCS(=O)(=O)O)CCC32)C1 (stereo not shown) [sodium salt]"
  Experimental Value: 127
- Molecule: "COC1CCC2C3CCC4CC(O)(C#Cc5ccc(C(C)=O)cc5)CCC4(C)C3CCC12C (stereo not shown)"
  Experimental Value: 129
